- procedure.text: Clearance in dog at 1 mg/kg, iv
- Format: ADME, organism-based, Canis lupus familiaris
- Design: dose 1 mg/kg, route intravenous
- study.conditions: in vivo
assay.readout: clearance

Challenge: Consider the compound CCCCN1C(=O)[C@@H]([C@H](O)C2CCCCC2)NC(=O)C12CCN(Cc1ccc(Oc3ccc(C(=O)O)cc3)cc1)CC2.Cl [APLAVIROC HYDROCHLORIDE] and give its measured clearance.
Response given: 33 mL/min

---

Readings of half-life for the listed compounds
- procedure.text: Half life in rat at 10 mg/kg, po
- Format: ADME, organism-based
- Design: dose 10 mg/kg, route oral
- study.conditions: in vivo
Could you give me the number in h? Just the number is fine.

Challenge: Consider the compound CCCCN1C(=O)[C@@H]([C@H](O)C2CCCCC2)NC(=O)C12CCN(Cc1ccc(Oc3ccc(C(=O)NC)cc3)cc1)CC2.Cl and give its measured half-life.
Response given: 1.22

Challenge: Now consider CCCCN1C(=O)C(CC2CCCCC2)NC(=O)C12CCN(Cc1ccc(Oc3ccc(C(=O)NC)cc3)cc1)CC2.Cl (stereo unspecified) and answer again.
Response given: 1.72

Challenge: Now consider CCCN1C(=O)[C@@H]([C@H](O)C2CCCCC2)NC(=O)C12CCN(Cc1ccc(Oc3ccc(C(=O)NC)cc3)cc1)CC2.Cl and answer again.
Response given: 2

Challenge: Now consider CCCCN1C(=O)C(C(C)C)NC(=O)C12CCN(Cc1ccc(Oc3ccccc3)cc1)CC2.Cl (stereo unspecified) and answer again.
Response given: 1.26

Challenge: Now consider CCCCN1C(=O)[C@@H]([C@H](O)C2CCCCC2)NC(=O)C12CCN(Cc1ccc(Oc3ccc(NS(C)(=O)=O)cc3)cc1)CC2.Cl and answer again.
Response given: 3.42

Here is another compound to look at.
Challenge: Consider the compound CCCCN1C(=O)[C@@H]([C@H](O)C(C)C)NC(=O)C12CCN(Cc1ccc(Oc3ccc(C(=O)O)cc3)cc1)CC2.Cl and give its measured half-life.
Response given: 4.5

---

- System: Liver microsomes
- procedure.text: Metabolic stability in human liver microsomes assessed as compound remaining after 15 mins
- Format: ADME, Microsome
- study.conditions: 0.25 h
Readings of Stability for the listed compounds
Could you give me the number in %? Just the number is fine.

Known Stability results, listed for orientation:
Challenge: Consider the compound CCCCN1C(=O)[C@@H]([C@H](O)C2CCCCC2)NC(=O)C12CCN(Cc1ccc(Oc3ccccc3)cc1)CC2.Cl and give its measured Stability.
Response given: 6

Challenge: Now consider CCCCN1C(=O)[C@@H]([C@H](O)C2CCCCCC2)NC(=O)C12CCN(Cc1ccc(Oc3ccc(C(=O)O)cc3)cc1)CC2.Cl and answer again.
Response given: 34

Challenge: Now consider CCCCN1C(=O)[C@@H]([C@H](O)C2CCCCC2)NC(=O)C12CCN(Cc1ccc(Oc3ccc(O)cc3)cc1)CC2.Cl and answer again.
Response given: 3.5

Challenge: Now consider CCCCN1C(=O)[C@@H]([C@H](O)C2CCC(O)CC2)NC(=O)C12CCN(Cc1ccc(Oc3ccc(C(=O)O)cc3)cc1)CC2.Cl (stereo not given in full) and answer again.
Response given: 100

Challenge: Now consider CCCCN1C(=O)[C@@H]([C@H](O)C2CCCCC2)NC(=O)C12CCN(Cc1ccc(Oc3ccc(C(N)=O)cc3)cc1)CC2.Cl and answer again.
Response given: 1.5

More entries:
Challenge: Consider the compound CCCCN1C(=O)[C@@H]([C@H](O)C2CCC2)NC(=O)C12CCN(Cc1ccc(Oc3ccc(C(=O)O)cc3)cc1)CC2.Cl and give its measured Stability.
Response given: 95

Challenge: Now consider CCCCN1C(=O)[C@@H]([C@H](O)C2CCCC2)NC(=O)C12CCN(Cc1ccc(Oc3ccc(C(=O)O)cc3)cc1)CC2.Cl and answer again.
Response given: 93
